Assay System: recombinant human 5-HT5A receptor (Homo sapiens)
Assay Notes: [3H]LSD radioligand binding assay, membranes of HEK-EBNA cells transiently expressing 5-HT5A receptors
Run Conditions: [3H]LSD approx. 1 nM, SPA beads, 120 min at room temperature; Ki from IC50 by Cheng-Prussoff equation
Label true (1) when Ki < 100 nM; otherwise false (0).

Examples from the recorded data:
> print(dat)
                                   compound  group.label
1  Clc1ccccc1-c1cccc2nc(N[C@@H]3CCc4ccccc43)ccc12    false (0)
2  O=S(=O)(Nc1cccc2nc(NC3CC4CCC3C4)ccc12)c1ccc(F)cc1 (racemic)    false (0)

Attention now turns to another entry.
Lookup: Quick check: Ki of ON=C(c1ccc(F)cc1)c1cccc2nc(N[C@@H]3CCc4ccccc43)ccc12 under 100 nM?
Found: true (1)

* * *

Recorded Metric: melting point
Hi, when you answer, please include the unit after the number. Thanks!

> print(dat)
                            compound.string  result
1  ON=C(c1cccs1)c1cccc2nc(N[C@@H]3CCc4ccccc43)ccc12  194 °C
2  O=C(c1cccs1)c1cccc2nc(N[C@@H]3CCc4ccccc43)ccc12  176 °C

Next molecule, melting point to be filled in.
Lookup: Supply recorded melting point for ON=C(c1ccccc1)c1cccc2nc(N[C@@H]3CCc4ccccc43)ccc12 here.
Found: 175.5 °C

* * *

Assay System: recombinant human 5-HT5A receptor (Homo sapiens, UniProt P47898)
Sequence (P47898 whole entry): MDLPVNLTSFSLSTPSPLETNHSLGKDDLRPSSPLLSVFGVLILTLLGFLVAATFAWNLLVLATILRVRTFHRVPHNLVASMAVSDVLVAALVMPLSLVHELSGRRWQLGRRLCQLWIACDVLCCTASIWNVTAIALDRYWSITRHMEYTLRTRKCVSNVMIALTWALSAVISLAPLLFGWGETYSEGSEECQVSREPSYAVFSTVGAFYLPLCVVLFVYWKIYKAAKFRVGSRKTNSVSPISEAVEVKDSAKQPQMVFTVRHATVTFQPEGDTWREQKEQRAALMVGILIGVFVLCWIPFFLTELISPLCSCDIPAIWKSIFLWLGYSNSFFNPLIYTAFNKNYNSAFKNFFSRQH
Assay Notes: [3H]LSD radioligand binding assay, membranes of HEK-EBNA cells transiently expressing 5-HT5A receptors
Run Conditions: [3H]LSD approx. 1 nM, SPA beads, 120 min at room temperature; Ki from IC50 by Cheng-Prussoff equation
Procedure: A [^3H]LSD radioligand binding assay was used to determine the affinity of the compounds for the recombinant human 5-HT5A receptor, in membranes from transiently (cDNA) expressed 5-HT5A receptors in Human Embryonic Kidney-EBNA (HEK-EBNA) cells. […] Bound ligand was determined using a Packard Topcount scintillation counter. IC50 values were calculated using a non-linear curve fitting program and Ki values calculated using the Cheng-Prussoff equation.
Recorded Metric: pKi
Answers are plain numbers, as −log10 of the molar value.

> print(dat)
                                   molecule  recorded.metric  quantitative.readout
1  c1ccc2c(c1)CC[C@H]2Nc1ccc2c(-c3cccc4[nH]ccc34)cccc2n1              pKi                  7.38
2  Fc1cc(F)cc(CNc2cccc3nc(NC4COc5ccccc54)ccc23)c1 (racemic) [Example 17]              pKi                  8.03
3  COc1cccc2c1C(Nc1ccc3c(NCc4cccc5[nH]ccc45)cccc3n1)CC2 (racemic)              pKi                  8.43
4  O=S(=O)(Nc1cccc2nc(N[C@@H]3CCc4ccccc43)ccc12)c1ccc(F)cc1              pKi                  8.42
5  c1ccc2c(c1)CC[C@H]2Nc1ccc2c(Nc3cccc4cc[nH]c34)cccc2n1              pKi                  8.25

Report pKi for each item below.
1. O=S(=O)(Nc1cccc2nc(N[C@@H]3CCc4ccccc43)ccc12)c1cc(F)cc(F)c1
2. O=C(Nc1cccc2nc(N[C@@H]3CCc4ccccc43)ccc12)c1cc(F)cc(F)c1
3. O=C(NCc1cccc2nc(N[C@@H]3CCc4ccccc43)ccc12)c1ccc(F)cc1

Found:
1: 8.23; 2: 7.01; 3: 7.46

* * *

Would you kindly list melting point for each of these compounds?
Give bare numbers, in °C.

> print(dat)
                            compound.string  recorded.metric  quantity.unit  quantitative.readout
1  O=C(c1ccc(CN2CCOCC2)cc1)c1cccc2nc(N[C@@H]3CCc4ccccc43)ccc12    melting point             °C                   160
2  ON=C(c1ccc(F)cc1)c1cccc2nc(N[C@@H]3CCc4ccccc43)ccc12    melting point             °C                   184
3  ON=C(c1cc(F)cc(F)c1)c1cccc2nc(N[C@@H]3CCc4ccccc43)ccc12    melting point             °C                 120.5
4  ON=C(c1cccc(F)c1)c1cccc2nc(N[C@@H]3CCc4ccccc43)ccc12    melting point             °C                 179.5
5  O=C(NCc1cccc2nc(N[C@@H]3CCc4ccccc43)ccc12)c1ccc(F)cc1    melting point             °C                   145

Provide melting point for all items below, preserving their order.
1. ON=C(c1ccc(Cl)cc1)c1cccc2nc(N[C@@H]3CCc4ccccc43)ccc12
2. Cc1nc(-c2cccc3nc(N[C@@H]4CCc5ccccc54)ccc23)no1
3. ON=C(c1ccc(CN2CCOCC2)cc1)c1cccc2nc(N[C@@H]3CCc4ccccc43)ccc12

Found:
194
105
167

* * *

Assay System: recombinant human 5-HT5A receptor (Homo sapiens, UniProt P47898)
Assay Notes: [3H]LSD radioligand binding assay, membranes of HEK-EBNA cells transiently expressing 5-HT5A receptors
Run Conditions: [3H]LSD approx. 1 nM, SPA beads, 120 min at room temperature; Ki from IC50 by Cheng-Prussoff equation
Recorded Metric: Ki

> print(dat)
                                   compound   result
1  Fc1cc(F)cc(CNc2cccc3nc(NC4Cc5ccccc5C4)ccc23)c1  56.2 nM

Report Ki for each item below.
1. COc1cccc2c1C(Nc1ccc3c(NS(=O)(=O)c4ccc(F)cc4)cccc3n1)CC2 (racemic)
2. COc1ccc2c(c1)C(Nc1ccc3c(NS(=O)(=O)c4ccc(F)cc4)cccc3n1)CC2 (single isomer, unassigned; (+)) [Example 33]
3. ON=C(c1cc(F)cc(F)c1)c1cccc2nc(N[C@@H]3CCc4ccccc43)ccc12
4. ON=C(c1ccc(Cl)cc1)c1cccc2nc(N[C@@H]3CCc4ccccc43)ccc12
5. ON=C(c1ccc(CN2CCOCC2)cc1)c1cccc2nc(N[C@@H]3CCc4ccccc43)ccc12
6. N=C(c1ccccc1)c1cccc2nc(N[C@@H]3CCc4ccccc43)ccc12
7. Fc1cc(F)cc(CNc2cccc3nc(N[C@@H]4CCc5ccccc54)ccc23)c1
8. COc1cccc2c1C(Nc1ccc3c(NS(=O)(=O)c4cc(F)c(F)c(F)c4)cccc3n1)CC2 (racemic)

Found:
4.23 nM
12 nM
7.7 nM
5.48 nM
23.2 nM
17.1 nM
1.85 nM
7.18 nM

Working through the 6 compounds below one at a time, give Ki for each.
1. O=S(=O)(Nc1cccc2nc(N[C@@H]3CCc4ccccc43)ccc12)c1cc(F)c(F)c(F)c1
2. c1cncc(CNc2cccc3nc(NC4COc5ccccc54)ccc23)c1 (single isomer, unassigned; (+)) [Example 27]
3. COc1ccc2c(c1)C(Nc1ccc3c(NCc4cccnc4)cccc3n1)CC2 (racemic) [Example 23]
4. O=C(c1ccccc1)c1cccc2nc(N[C@@H]3CCc4ccccc43)ccc12
5. COc1cccc2c1C(Nc1ccc3c(NS(=O)(=O)c4cc(F)cc(F)c4)cccc3n1)CC2 (stereo not shown)
6. COc1ccc2c(c1)C(Nc1ccc3c(NCc4cc(F)cc(F)c4)cccc3n1)CC2 (single isomer, unassigned; (+)) [Example 35]

Found:
["11.1 nM", "25.8 nM", "23.5 nM", "24.1 nM", "4.57 nM", "7.81 nM"]

Lookup: State the measured Ki (recombinant human 5-HT5A receptor (Homo sapiens, UniProt P47898)) of N=C(c1ccc(F)cc1)c1cccc2nc(N[C@@H]3CCc4ccccc43)ccc12
Found: 7.82 nM

* * *

Assay System: recombinant human 5-HT5A receptor (Homo sapiens, UniProt P47898)
Assay Notes: [3H]LSD radioligand binding assay, membranes of HEK-EBNA cells transiently expressing 5-HT5A receptors
Run Conditions: [3H]LSD approx. 1 nM, SPA beads, 120 min at room temperature; Ki from IC50 by Cheng-Prussoff equation
Recorded Metric: pKi
One number for each entry, as −log10 of the molar value.

Worked examples, 5 compounds total:
> print(dat)
                                   compound  quantitative.readout
1  Fc1cc(F)cc(CNc2cccc3nc(NC4COc5ccccc54)ccc23)c1 (single isomer, unassigned; (+)) [Example 32]                  7.90
2  ON=C(c1cccc(F)c1)c1cccc2nc(N[C@@H]3CCc4ccccc43)ccc12 [Example 96]                  8.91
3  COc1ccc2c(c1)C(Nc1ccc3c(NCc4cccnc4)cccc3n1)CC2 (single isomer, unassigned; (+)) [Example 37]                  7.75
4  Cc1ccc(C(=NO)c2cccc3nc(N[C@@H]4CCc5ccccc54)ccc23)cc1 [Example 99]                  8.74
5  COc1ccc2c(c1)C(Nc1ccc3c(NCc4cc(F)cc(F)c4)cccc3n1)CC2 (racemic) [Example 29]                  8.01

Each compound below has a reported value. Please supply its pKi.
1. Cc1nc(-c2cccc3nc(N[C@@H]4CCc5ccccc54)ccc23)no1 [Example 79]
2. CN(C)CCOc1ccccc1CNc1cccc2nc(N[C@@H]3CCc4ccccc43)ccc12 [Example 64]
3. c1cncc(COc2cccc3nc(N[C@@H]4CCc5ccccc54)ccc23)c1 [Example 4]
4. Cc1ccccc1-c1cccc2nc(N[C@@H]3CCc4ccccc43)ccc12 [Example 65]

Found:
6.87
8.22
7.43
6.76

Items follow; give pKi for each.
1. CN(c1cccc2nc(N[C@@H]3CCc4ccccc43)ccc12)S(=O)(=O)c1ccc(F)cc1 [Example 8]
2. COc1cccc2c1C(Nc1ccc3c(NS(=O)(=O)c4cc(F)cc(F)c4)cccc3n1)CCC2 (racemic) [Example 59]
3. Fc1ccc(Nc2cccc3nc(N[C@@H]4CCc5ccccc54)ccc23)cc1 [Example 77]
4. c1cncc(CNc2cccc3nc(N[C@@H]4CCc5ccccc54)ccc23)c1 [Example 12]
5. c1ccc2c(c1)CC[C@H]2Nc1ccc2c(NCc3cccc4[nH]ccc34)cccc2n1 [Example 56]
6. COc1cccc2c1C(Nc1ccc3c(NCc4cnc[nH]4)cccc3n1)CCC2 (racemic) [Example 67]
7. COc1ccc(C(=O)c2cccc3nc(N[C@@H]4CCc5ccccc54)ccc23)cc1 [Example 93]
8. Cc1ccc(C(=O)c2cccc3nc(N[C@@H]4CCc5ccccc54)ccc23)cc1 [Example 97]

Found:
1: 7.87; 2: 7.87; 3: 8.20; 4: 8.29; 5: 8.78; 6: 7.98; 7: 7.80; 8: 7.43

Kindly give each listed record's pKi.
1. O=C(Nc1cccc2nc(N[C@@H]3CCc4ccccc43)ccc12)c1ccc(F)cc1 [Example 78]
2. O=S(=O)(Nc1ccc(F)cc1)Nc1cccc2nc(N[C@@H]3CCc4ccccc43)ccc12 [Example 86]
3. O=C(c1cc(F)cc(F)c1)c1cccc2nc(N[C@@H]3CCc4ccccc43)ccc12 [Example 100]

Found:
1. 7.04
2. 8.00
3. 6.58
